target: L3 (DV1-GV8), soluble leucine zipper γδ TCR heterodimer of a delta variable 1 chain and a gamma variable 8 … (human); experiment: DELFIA ELISA, coated antigen;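 further: binding of antibody supernatants or protein-A purified antibodies to plate-coated antigen (3 µg/ml recombinant TCR or BSA), 1 h incubation at room temperature, DELFIA readout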
Sequence (chain, as listed by the source mutant, chain 1 of 2): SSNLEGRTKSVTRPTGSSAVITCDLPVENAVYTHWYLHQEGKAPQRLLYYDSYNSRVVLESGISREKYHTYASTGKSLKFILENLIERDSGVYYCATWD
Sequence (chain, as listed by the source mutant, chain 2 of 2): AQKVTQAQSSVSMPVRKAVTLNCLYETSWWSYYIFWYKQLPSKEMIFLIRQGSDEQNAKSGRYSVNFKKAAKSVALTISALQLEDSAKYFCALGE
MEASUREMENT_LABEL: DELFIA ELISA response (FU)
Report the value in FU with no unit label.

Data request, read-out DELFIA ELISA response (FU), for G4_15 (antibody, human IgG1, V domains shown, also called clone G4_15) VH: EVQLVQSEAEVKKPGASVKVSCKASGYTFTRHYMHWVRQAPGQGLEWMGLINPSGSSTVYAQKFQGRVTLTRDTSTSTDYMELSSLRSEDTAVYYCARDNSHLDQVWWFDPWGQGTLVTVSS VL: SQSALTQPASVSGSPGQSITISCTGTSSDVGGYNYVSWYQQHPGKAPKLMIYDVSNRPSGVSNRFSGSKSGNTASLTISGLQAEDEADYYCSSYGSGSVFGTGTKLTVLG 156

Data request, read-out DELFIA ELISA response (FU), for G4_2 (antibody, human IgG1, V domains shown, also called clone G4_2) VH: QMQLVQSGAEVKKPGATVKISCKVSGYPFTDYYIHWVQQAPGKGLEWMGLVDPEDGQSRSAERFQGRVTITADTSTDTAYMELSSLRSEDTAVYYCATFPVAGFYGMDVWGQGTLVTVSS VL: DIQMTQSPSSLSASVGDRVTITCQASQDISNYLNWYQQKPGKAPKLLIYAASSLQSGVPSRFSGSGSGTDFTLTISGLQPEDFATYYCLEDYNYLWTFGQGTKLEIKR 270

Data request, read-out DELFIA ELISA response (FU), for G4_12 (antibody, human IgG1, V domains shown, also called 1140_P01_G08; clone G4_12) VH: EVQLLESGGGLVQPGGSLRLSCAASGFTVSSNYMSWVRQAPGKGLEWVSVIYSGGSTYYADSVKGRFTISRHNSKNTLYLQMNSLRAEDTAVYYCARVANGDFLDYWGRGTLVTVSS VL: SQSVLTQPASVSGSPGQSITISCTGTSSDVGGYNFVSWYQQHPGKAPKLMIYEVTNRPSGVPDRFSGSKSGNTASLTISGLQAEDEADYYCSSHASPRVFGTGTKVTVLG 252
